For each of the compounds below, state its %Inh.
Test system: IKK-alpha
Construct: gene CHUK
condition.parameters: concentration: 1 μM, replicates: in singlicate; n = 1;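 also: KINOMEscan kinase panel screen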
Numbers only, in %.

Recorded %Inh, per entry:
compound="COC(=O)Nc1nc2cc(Oc3ccc(NC(=O)Nc4cccc(SC)c4)cc3)ccc2[nH]1.Cl [GW697999]" value_reported=35
compound="COc1cc(Nc2nccc(N3CCC(NS(=O)(=O)c4ccc(NC(C)=O)cc4)CC3)n2)cc(OC)c1OC [GSK1379825]" value_reported=24
compound="Fc1cc(Cl)ccc1Nc1ccnc2cc(-c3ccc(CN4CCOCC4)o3)ccc12 [GW560109]" value_reported=43
compound="N#Cc1cnc2cc(-c3cnc(CNCCN4CCOCC4)s3)ccc2c1Nc1ccc(Oc2ccccc2)cc1 [GW664114]" value_reported=29
compound="CC(C)c1nc(-c2cccc(NS(=O)(=O)c3c(F)cccc3F)c2)c(-c2ccnc(Nc3ccc(N4CCOCC4)nc3)n2)s1.Cl [GSK1723980]" value_reported=0

Quick one: give me %Inh for each item below, same order please.
1. COc1cccc(CC(=O)N2CCc3cc(-c4cn(C)c5ncnc(N)c45)ccc32)c1 [GSK2608899]
2. O=C(Nc1n[nH]c2nc(-c3cccc(O)c3)ccc12)C1CC1 [SB-711805]
3. CN(c1ccc(NC(=O)N2CCN(CCCN3CCOCC3)CC2)cc1)c1ccnc(Nc2ccc(CS(C)(=O)=O)cc2)n1.Cl [GW830899]
4. Cn1cc(-c2ccc3c(c2)CCN3C(=O)Cc2cc(F)cc(F)c2F)c2c(N)ncnc21 [GSK2634140]
5. CN(c1ccc(NC(=O)Nc2cccc(Cl)c2)cc1)c1ccnc(N)n1.Cl [GW830707]

Return:
1. 0
2. 0
3. 0
4. 0
5. 0

###

For each of the molecules below, state its %Inh.
Tested on: EPHA2
condition.parameters: concentration: 1 μM, replicates: in singlicate; n = 1
Give bare numbers, in %.

Recorded %Inh, per entry:
molecule="NCCC(NC(=O)c1cc(Br)c(-c2ccnc3[nH]ccc23)s1)c1ccccc1.O=C(O)C(F)(F)F.O=C(O)C(F)(F)F (centres unmarked)" test_readout=%Inh value_reported=1
molecule=CN(C)c1ncnc2nc[nH]c12 test_readout=%Inh value_reported=0
molecule=COc1ccc(C)c(Nc2ccnc(Nc3ccc(-c4cnc[nH]4)cc3)n2)c1.Cl test_readout=%Inh value_reported=45
molecule=Nc1ncnc2scc(-c3ccc(NC(=O)Cc4cc(F)ccc4F)cc3)c12.O=C(O)C(F)(F)F test_readout=%Inh value_reported=100
molecule=CC(C)c1nc(-c2cccc(NS(=O)(=O)c3c(F)cccc3F)c2)c(-c2ccnc(Nc3ccc(N4CCOCC4)nc3)n2)s1.Cl test_readout=%Inh value_reported=0
molecule=COc1cccc2c(-c3ccncc3)c(-c3ccc(F)cc3)nn12 test_readout=%Inh value_reported=17
molecule=O=C(Nc1c(F)cccc1F)c1cc(C(=O)c2ccccc2F)c[nH]1 test_readout=%Inh value_reported=11
molecule=COc1cccc(C2=C(Nc3cccc(O)c3)C(=O)NC2=O)c1 test_readout=%Inh value_reported=29
molecule=O=C(Nc1n[nH]c2nc(-c3ccccc3)ccc12)C1CC1 test_readout=%Inh value_reported=15
molecule=O=C1NC(=O)C(c2ccccc2Cl)=C1Nc1cccc(Cl)c1 test_readout=%Inh value_reported=7

Quick one: give me %Inh for each item below, same order please.
1. Cc1ccc(-c2ccc3occ(-c4ccc(S(C)=O)cc4)c3c2)nn1 (centres unmarked)
2. O=C(Nc1n[nH]c2nc(-c3ccccc3O)ccc12)C1CC1
3. COc1ccc(NC(=O)c2ccoc2)cc1-c1ccc(C(=O)NCC2CC2)cc1
4. Cc1ccc(Nc2ccnc(Nc3ccc(C)c(F)c3)n2)cc1O.Cl

Return:
4
4
0
19

###

For each of the compounds below, state its %Inh.
Tested on: FLT3
condition.parameters: concentration: 1 μM, replicates: in singlicate; n = 1
One number for each entry, in %.

Quick one: give me %Inh for each item below, same order please.
1. Cc1ccc(NC(=O)c2cccc(N3CCCCC3)c2)cc1-c1ccc(C(=O)NCC2CC2)cc1 [GSK1917008]
2. O=C(Nc1n[nH]c2nc(-c3ccccc3O)ccc12)C1CC1 [SB-711880]
3. O=C(O)C(F)(F)F.O=c1[nH]ccc2nc(N[C@@H]3CCNC3)nc(Nc3ccc4c(c3)S(=O)(=O)CC4)c12 [GSK2181306]
4. Cc1ccccc1CC(=O)N1CCc2cc(-c3cn(C)c4ncnc(N)c34)ccc21 [GSK2603346]
5. Cc1cc(-c2c(-c3ccc(F)cc3)ncn2CCCN2CCOCC2)nc(N)n1 [SB-222517]
6. COC(=O)Nc1nc2ccc(Oc3ccc(CC(=O)Nc4cc(C(F)(F)F)ccc4F)cc3)cc2[nH]1 [GW680903]

Return:
[0, 28, 61, 51, 27, 99.3]

Quick one: give me %Inh for each item below, same order please.
1. Cc1ccc(-c2ccc3occ(-c4ccc(S(C)=O)cc4)c3c2)nn1 (stereo not drawn)
2. Cc1ccc(NC(=O)c2ccc(Cl)c(Cl)c2)cc1-c1ccc(C(=O)Nc2ccncc2)cc1 [GSK1398460]
3. CC(C)NCC(Cc1ccccc1)NC(=O)c1cc(Br)c(-c2ccnc3[nH]ccc23)s1.Cl.Cl (stereo not drawn) [GSK1383281]
4. CN(c1ccc(F)c(NC(=O)c2cccc(OC(C)(C)C#N)c2Cl)c1)c1ccc2nc(NC(=O)C3CC3)sc2n1
5. O=C(Nc1n[nH]c2nc(-c3ccccc3)ccc12)C1CC1 [SB-708999]
6. CN(C)c1ncnc2nc[nH]c12 [SKF-31736]

Return:
[0, 5, 68, 96.7, 42, 0]

###

System: MUSK
condition.parameters: concentration: 1 μM, replicates: in singlicate; n = 1
test.readout: %Inh (%)
One number for each entry, in %.

cpd_smiles=Cc1cccc(Nc2nc(NCCN)ncc2C(N)=O)c1 target_entity=MUSK value_reported=6
cpd_smiles=Cc1cc(-c2c(-c3ccc(F)cc3)ncn2CCCN2CCOCC2)nc(N)n1 target_entity=MUSK value_reported=14

// next item, %Inh requested
// compound Cc1ccc(NC(=O)c2ccnc(N3CCCCC3)c2)cc1-c1ccc(C(=O)NCC2CC2)cc1 , assay MUSK, %Inh value: 0

###

System: LATS1
condition.parameters: concentration: 1 μM, replicates: in singlicate; n = 1
test.readout: %Inh (%)
Give bare numbers, in %.

Recorded %Inh, per entry:
compound="CCn1cnc2c(NCc3ccccc3)ncnc21 [SKF-96418]" target_entity=LATS1 test_readout=%Inh value_reported=0
compound="O=C1NC(=O)C(c2ccccc2Cl)=C1Nc1cccc(Cl)c1 [SB-342409]" target_entity=LATS1 test_readout=%Inh value_reported=0
compound="CN(C)CCNS(=O)(=O)c1ccc(-c2ccnc3[nH]ccc23)cc1 [GSK977620]" target_entity=LATS1 test_readout=%Inh value_reported=29
compound="Cl.O=C(Nc1ccc(Oc2ccc3[nH]c(NC(=O)c4ccco4)nc3c2)cc1)Nc1cc(C(F)(F)F)ccc1F [GW683134]" target_entity=LATS1 test_readout=%Inh value_reported=30

// next item, %Inh requested
The value of %Inh measured for the compound Cc1nn2c(=O)cc(N3CCO[C@H](C)C3)nc2n1Cc1cccc(Cl)c1Cl [GSK2373693] turned out to be 0

###

Test system: PFTK1
Construct: gene CDK14
condition.parameters: concentration: 1 μM, replicates: in singlicate; n = 1
Please assign criterion not met whenever %Inh is at or above 6%, and criterion met whenever it is below.

Below are worked cases with known answers.
molecule="Cc1cc(-c2ccnc(Nc3cccc(C#N)c3)n2)cc(C)c1O [GSK1440913]" class_name="criterion not met"
molecule="Cc1ccc(NC(=O)c2ccc(Cl)c(Cl)c2)cc1-c1ccc(C(=O)Nc2ccncc2)cc1 [GSK1398460]" class_name="criterion met"
molecule="COC(=O)Nc1nc2ccc(Oc3ccc(NC(=O)Nc4cc(C(F)(F)F)ccc4F)cc3)cc2[nH]1.Cl [GW654607]" class_name="criterion not met"
molecule="Nc1ncc(-c2cn[nH]c2)c2scc(-c3ccc4c(c3)CCN4C(=O)Cc3ccccc3)c12 [GSK2593067]" class_name="criterion met"
molecule="COc1cccc2c(-c3ccncc3)c(-c3ccc(F)cc3)nn12 [GW468513]" class_name="criterion met"
molecule="Cc1ccc(O)cc1Nc1ccnc2cc(-c3ccc(CN4CCCCC4)o3)ccc12 [GW557777]" class_name="criterion not met"

Enquiry: %Inh strictly < 6% for this molecule? CC(C)NCC(Cc1ccccc1)NC(=O)c1cc(Br)c(-c2ccnc3[nH]ccc23)s1.Cl.Cl (centres unmarked) [GSK1383281]
Return: criterion not met

###

Tested on: RET
condition.parameters: concentration: 1 μM, replicates: in singlicate; n = 1
Please assign no (0) whenever %Inh is at or above 60%, and yes (1) whenever it is below.

Below are worked cases with known answers.
compound="Cl.O=C(Nc1ccc(Oc2ccc3[nH]c(NC(=O)c4ccco4)nc3c2)cc1)Nc1cc(C(F)(F)F)ccc1F [GW683134]" class_name="no (0)"
compound="Cc1cccc(Nc2nc(N[C@H]3CCCC[C@H]3N)ncc2C(N)=O)c1.Cl [GSK986310]" class_name="no (0)"
compound="Nc1ncc(-c2ccc3nccc(-c4ccncc4)c3c2)cc1S(=O)(=O)N1CCCCC1 [GSK1693850]" class_name="yes (1)"
compound=CN(c1ccc(F)c(NC(=O)c2cccc(OC(C)(C)C#N)c2Cl)c1)c1ccc2nc(NC(=O)C3CC3)sc2n1 class_name="no (0)"
compound="O=C(O)C(F)(F)F.O=c1[nH]ccc2nc(N[C@@H]3CCNC3)nc(Nc3cc(Cl)cc(Cl)c3)c12 [GSK2188764]" class_name="yes (1)"

Enquiry: %Inh strictly < 60% for this compound? Cn1cc(-c2cnc(N)c3c(-c4ccc5c(c4)CCN5C(=O)Cc4ccccc4)csc23)cn1 [GSK2593074]
Return: yes (1)
